# GI50 per record follows
system: CAKI-1; assay: NCI tumour cell line growth inhibition, 48 h
The source made the active and inactive calls. Rule as the data show it: active = GI50 up to about 1.1 µM and inactive = higher.

Worked cases, answers included:
Task: Any idea what GI50 was measured for O=c1oc2cc(/N=C/c3ccccc3Cl)ccc2c2ccccc12 ?
Result: > 100 µM (inactive)

Task: Can you handle Cc1nc(Nc2ccccc2Cl)sc1C(=O)CC(=O)C(N)=O next?
Result: > 100 µM (inactive)

Task: Can you handle N#C/C(N)=C(C#N)/N=C/Nc1ccccc1N next?
Result: > 100 µM (inactive)

Task: Can you handle C=C(C(=O)O)C1CCC(CC/C=C(\C)CC/C=C(\C)CCC=C(C)C)CO1 (stereo not given) next?
Result: 32.3 µM (inactive)

Task: Can you handle O=C1C=CC(=O)c2c1ccc1c3ccccc3n(-c3cccc([N+](=O)[O-])c3)c21 next?
Result: 2.55 µM (inactive)

More entries:
Task: Any idea what GI50 was measured for CC(=O)OCC1OC(n2cnc3c(I)nc(I)nc32)C(OC(C)=O)C1OC(C)=O (stereo not given) ?
Result: 2.02 µM (inactive)

Task: Can you handle COc1c2cc(C(C)(C)C)cc1Cc1cccc(c1O)Cc1cc(C(C)(C)C)cc(c1OC)Cc1cccc(c1O)Cc1cc(C(C)(C)C)cc(c1OC)Cc1cccc(c1O)C2 next?
Result: > 100 µM (inactive)

Task: Can you handle CC(=O)N(C)OC(=O)CC(=O)c1ccccc1 next?
Result: > 100 µM (inactive)

Task: Can you handle CCOc1ccc(NC(=O)C(=O)Nn2c(N)nnc2N)cc1 next?
Result: > 100 µM (inactive)

Task: Can you handle COc1ccc2c(=O)c(O)c(-c3ccc(OC)c(OC)c3)oc2c1 next?
Result: 3.44 µM (inactive)

Reference source: ChEMBL document CHEMBL1201862
